composite z-score reference
- assay.target: Calmodulin-1 (Homo sapiens) (UniProt P0DP23)
- assay.notes: small molecules binding Ca-loaded calmodulin-1 – biochemical, small-molecule microarray, Cy5-labelled CALM1, plus calcium, artefact control for SMM control-protein annotation, profiling panel (AID 1112);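 note: score merges spot fluorescence with signal to noise from triplicate slides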
- condition.context: Cy5-CALM1 binding fluorescence, higher = more signal
# output: bare number, no unit

Examples with their reported composite z-score follow.
compound | composite z-score
CC[C@@H]1[C@@H]2C3C(=O)N(CC)C(=O)C3CC(=O)[C@@H]2[C@H](c2ccc(C)cc2)N1S(=O)(=O)c1ccc(C)cc1 (some centres undefined) | 0.409
CCCC=C(CCC)[C@@H](NS(=O)(=O)c1cccc2cccnc12)c1ccc(C(=O)OC)cc1 | -0.2
COC(=O)[C@@]1(Cc2ccccc2)[C@H]2c3cc(C(=O)N4CCCC4)n(CCO)c3C[C@H]2CN1C(=O)c1ccccc1 | 1.07

Shift focus to the following entry.
Record request: composite z-score value, item O=C1C2C=CC(C(O)c3cccc4ccccc34)N(Nc3ccccc3)C2C(=O)N1c1ccccc1 (centres undefined)
-0.8
